I'd appreciate it if you could supply TGI values for the items below.
Test system: SF-539 CNS
Test: NCI tumour cell line growth inhibition, 48 h
Where a SMILES comes first, the peptide text is derived from it. Bridges are numbered along the chain shown (N, C = ends). [ ]: non-standard residue; d: D form. The star is where a group is joined. ξ: configuration not given here. ξDab(CH2SO3H) = NC(CCNCS(=O)(=O)O)C(=O)O; Heptanoyl(6-Me) = CC(C)CCCCC(=O)*; Dab = NCC[CH](N)C(=O)O

TGI measured on CCc1nc(N)nc(N)c1-c1ccc2nnn(O)c2c1 = > 100 µM

TGI measured on Cc1ccc(C(=O)Cn2c(C(=O)/C=C/c3cccs3)nc3ccccc32)cc1 = > 100 µM

TGI measured on COc1ccc(Sc2nc3cc(N)cc(N)c3nc2-c2ccccc2)cc1 = > 100 µM

TGI measured on OCCCNc1ccnc2cc(Cl)ccc12 = > 100 µM

TGI measured on CC(C)C(=O)CC(c1ccc(Cl)cc1)N1N=C(C(C)C)CC1c1ccc(Cl)cc1 (configuration not stated) = > 42.7 µM

TGI measured on CCN(CC)CCN(C(=Nc1ccccc1)N1CCCCC1)c1ccccc1 = 40 µM

TGI measured on CCC(C)C1NC(=O)C(CCNCS(=O)(=O)O)NC(=O)C(NC(=O)C(CCNCS(=O)(=O)O)NC(=O)C(NC(=O)C(CCNCS(=O)(=O)O)NC(=O)CCCCC(C)C)C(C)O)CCNC(=O)C(C(C)O)NC(=O)C(CCNCS(=O)(=O)O)NC(=O)C(CCNCS(=O)(=O)O)NC(=O)C(C(C)CC)NC1=O (configuration not stated) ({Heptanoyl(6-Me)}-[ξDab(CH2SO3H)]T[ξDab(CH2SO3H)][Dab][ξDab(CH2SO3H)]II[ξDab(CH2SO3H)][ξDab(CH2SO3H)]T; lactam 4-C; configuration not given here) = > 25 µM

Data provenance: PubChem BioAssay (NCI)
